biological target: Myc proto-oncogene protein (Homo sapiens, UniProt P01106); assay: Inhibition of human c-Myc assessed as reduction in c-Myc/Max/Ebox DNA complex formation using pre-formed complex of c-Myc and biotinylated DNA containing single Ebox-sequence followed by compound addition and further addition of his6-tagged c-Max and incubated for 2 hrs by AlphaScreen assay
Sequence (P01106 whole entry): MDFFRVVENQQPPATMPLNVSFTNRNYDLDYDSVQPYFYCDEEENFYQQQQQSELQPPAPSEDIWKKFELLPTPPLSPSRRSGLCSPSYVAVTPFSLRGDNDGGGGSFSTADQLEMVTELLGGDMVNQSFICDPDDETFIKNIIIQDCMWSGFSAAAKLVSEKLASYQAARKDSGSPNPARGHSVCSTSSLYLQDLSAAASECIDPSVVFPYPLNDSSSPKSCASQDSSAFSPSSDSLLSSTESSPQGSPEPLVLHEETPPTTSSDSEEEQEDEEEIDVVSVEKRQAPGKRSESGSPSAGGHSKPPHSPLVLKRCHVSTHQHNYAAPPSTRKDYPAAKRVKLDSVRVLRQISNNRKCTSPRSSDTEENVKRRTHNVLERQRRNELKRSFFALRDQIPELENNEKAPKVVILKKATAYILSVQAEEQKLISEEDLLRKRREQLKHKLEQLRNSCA
Attribute measured: IC50

Fill in: IC50 of "COCCNCCC(=O)Nc1sc2c(c1-c1nc3ccc(-c4cnc(OC)nc4)cc3s1)CCNC2" is ___ 1 to 10 µM

Consider the compound "COCCNCCC(=O)Nc1sc2c(c1-c1nc3ccc(-c4cnc(OC)c(OC)c4)cc3s1)CCNC2" and give its measured IC50. 1 to 10 µM

Any idea what IC50 was measured for "COCCNCCC(=O)Nc1sc2c(c1-c1nc3ccc(-c4c(C)nn(C)c4C)cc3s1)CCNC2" ? > 10 µM

Would you mind telling me what IC50 value was observed for "COc1cccc(NCCC(=O)Nc2sc3c(c2-c2nc4ccccc4s2)CCN(C(C)C)C3)c1" ? 1 to 10 µM

Sample "COCCNCCC(=O)Nc1sc2c(c1-c1nc3cc(-c4ccc(C)c(C#N)c4)ccc3s1)CCNC2" — what was its IC50? > 10 µM

Give its IC50 value. Item: "COCCNCCC(=O)Nc1sc2c(c1-c1nc3cc(-c4cnc(N)c(C(F)(F)F)c4)ccc3s1)CCNC2" 1 to 10 µM

Given the entry O=C(CC1COCCN1)Nc1sc2c(c1-c1nc3ccccc3s1)CCNC2 (centres undefined) , report its measured IC50. 0.3 to 1 µM

Which IC50 is reported for this compound? "COCCNCCC(=O)Nc1sc2c(c1-c1nc3ccc(-c4ccnn4C)cc3s1)CCNC2" 1 to 10 µM

Query (compound): "COCCNCCC(=O)Nc1sc2c(c1-c1nc3ccc(-c4cnc(N)c(C(F)(F)F)c4)cc3s1)CCNC2" ; field requested: IC50 > 10 µM

----------
Please provide measured pIC50 for the entries that follow.
target: Myc proto-oncogene protein (Homo sapiens, UniProt P01106); assay: Inhibition of human c-Myc assessed as reduction in c-Myc/Max/Ebox DNA complex formation using pre-formed complex of c-Myc and biotinylated DNA containing single Ebox-sequence followed by compound addition and further addition of his6-tagged c-Max and incubated for 2 hrs by AlphaScreen assay
pIC50: −log10 of the molar value.

// pIC50 lookup, key: "COCCNCCC(=O)Nc1sc2c(c1-c1nc3cc(-c4ccnc(C(F)(F)F)c4)ccc3s1)CCNC2" 6.00 to 6.52

Bench note: what pIC50 did "CNS(=O)(=O)c1ccccc1-c1ccc2nc(-c3c(NC(=O)CCNCCOC)sc4c3CCNC4)sc2c1" show? < 5.00

Query (molecule): "CNc1ncc2cc(-c3ccc4sc(-c5c(NC(=O)CCNCCOC)sc6c5CCNC6)nc4c3)ccc2n1" ; field requested: pIC50 < 5.00

Sample "CC(C)NCCC(=O)Nc1sc2c(c1-c1nc3cc(C4CCCCC4)ccc3s1)CCNC2" — what was its pIC50? < 5.00

GET /values?readout=pIC50&item= "COCCNCCC(=O)Nc1sc2c(c1-c1nc3ccc(-c4ccnc(C(F)(F)F)c4)cc3s1)CCNC2" < 5.00

Name the reported pIC50 value associated with the molecule "COCCNCCC(=O)Nc1sc2c(c1-c1nc3cc(-c4ccccc4Cl)ccc3s1)CCNC2" 5.00 to 6.00

Fill in the blank: the reported pIC50 of "COCCNCCC(=O)Nc1sc2c(c1-c1nc3c(NS(C)(=O)=O)cccc3s1)CCNC2" is ____. 5.00 to 6.00

Please report the recorded pIC50 for "COc1ccc(-c2ccc3sc(-c4c(NC(=O)CCNC(C)C)sc5c4CCNC5)nc3c2)cc1" . > 6.52

Any idea what its pIC50 is? The molecule is "COCCNCCC(=O)Nc1sc2c(c1-c1nc3cc(-c4ccncc4C)ccc3s1)CCNC2" 5.00 to 6.00
